# Tested on: Saccharomyces cerevisiae
# assay-explanation: protein stability index of tFT-peptide fusion (C-terminal peptide) (PSI (0-1 scale)); higher = more stable (slower turnover)
# condition: genetic background: das1 deletion; temperature: 30 C
Label Fulfilled when protein stability index is at or above 0.7; otherwise label Not fulfilled.

Known results for sequences:
Could you please find out whether GSNELLSILHRK [DCP2 C-terminal 12 aa] has protein stability index that meets 0.7 or exceeds it?
Fulfilled

Does EQAAKYIEYLNL [RAD10 C-terminal 12 aa] have a reported protein stability index of at least 0.7?
Fulfilled

State whether the measured protein stability index reaches 0.7, counting equality as reaching it, for NERGLSSNYQTI [FMP42 C-terminal 12 aa]
Fulfilled

Further cases:
Reported protein stability index reaches at least 0.7 for PIDPKAFTFDSR [YCL012C C-terminal 12 aa] ?
Fulfilled

Decide: is the reported value of protein stability index for TGTSTEAPSAAN [NCL1 C-terminal 12 aa] equal to or greater than 0.7?
Not fulfilled

Hello, I need to know if EDKGLLSCCTVM [YCP4 C-terminal 12 aa] has measured protein stability index not below 0.7. Thanks!
Fulfilled

---

# System: Saccharomyces cerevisiae
# assay-explanation: protein stability index of tFT-peptide fusion (C-terminal peptide) (PSI (0-1 scale)); higher = more stable (slower turnover)
# condition: genetic background: wild type; temperature: 30 C
The following ranges of protein stability index define the classes used here: small value (below 0.6), mid value (0.6 to below 0.7), large value (0.7 or more)

Lab log: `CFFPLFLCTAFC` — assign protein stability index category
small value

Kindly identify the class of `TQKKQKRKDQQR` .
mid value

State the class of the sequence shown: `EESNEERDQEKT`
mid value

For the record `VWLFCLSRLYLL` , report the class its protein stability index corresponds to.
small value

Bin this entry: `SRWDSDRGGERR`
large value

---
Class (by measured protein stability index) for `LELTSDWRAYVY`
mid value

Form: Item = `RLQSSRQMLVPS` ; Class = ?
mid value

Hi there! Could you help me figure out the category for `GMMLLRFIIRWY` please?
small value

The entry to classify is `LSLLPFLRPPPI` ; which class holds it?
large value

---

# System: Saccharomyces cerevisiae
# assay-explanation: protein stability index of tFT-peptide fusion (C-terminal peptide) (PSI (0-1 scale)); higher = more stable (slower turnover)
# condition: genetic background: cdc53-1; temperature: 37 C
Class membership depends on protein stability index alone; the intervals are low = under 0.5, mid = from 0.5 up to 0.7, high = 0.7 and over

Solved cases (6 shown):
Category of `WWVAGLGSSGGG` , please.
high

Class label required: `RPIFAYRPLRFL`
high

Any idea which band `FFCFFWLFHWFG` is in?
mid

Tag the class for `LGNVTDVMHRLS`
high

Textbook exercise: identify the category of the sequence given here, `WHFMVFFCFCVD` , according to its measured value.
low

Form field 'band' for `FAKRVARVAREH`
high

Next:
For `GGYVTVTSVTVV` , which protein stability index bin applies?
mid

Category of `LAPSRNRSVWLV` , please.
high

Sort into band: `FSVRLCLFVWGC`
low

Which of the defined bands does the recorded protein stability index of `CVARWPRPAGSS` sit within?
high

Which class does `YSVFCPLFFIIY` fall in?
low

Hello team, could you let me know which band the following sequence falls into: `QGILVGCCYVLC`
low

In plain terms, what class is `FVLFSIFHFFLW` ?
low
